# measured_target: FSHR (Homo sapiens, UniProt P23945)
# Construct: expressed in transfected cells; host or cells: CHO (Cho-FSHR-LUC-1-1-43)
# Sequence (P23945 18-695): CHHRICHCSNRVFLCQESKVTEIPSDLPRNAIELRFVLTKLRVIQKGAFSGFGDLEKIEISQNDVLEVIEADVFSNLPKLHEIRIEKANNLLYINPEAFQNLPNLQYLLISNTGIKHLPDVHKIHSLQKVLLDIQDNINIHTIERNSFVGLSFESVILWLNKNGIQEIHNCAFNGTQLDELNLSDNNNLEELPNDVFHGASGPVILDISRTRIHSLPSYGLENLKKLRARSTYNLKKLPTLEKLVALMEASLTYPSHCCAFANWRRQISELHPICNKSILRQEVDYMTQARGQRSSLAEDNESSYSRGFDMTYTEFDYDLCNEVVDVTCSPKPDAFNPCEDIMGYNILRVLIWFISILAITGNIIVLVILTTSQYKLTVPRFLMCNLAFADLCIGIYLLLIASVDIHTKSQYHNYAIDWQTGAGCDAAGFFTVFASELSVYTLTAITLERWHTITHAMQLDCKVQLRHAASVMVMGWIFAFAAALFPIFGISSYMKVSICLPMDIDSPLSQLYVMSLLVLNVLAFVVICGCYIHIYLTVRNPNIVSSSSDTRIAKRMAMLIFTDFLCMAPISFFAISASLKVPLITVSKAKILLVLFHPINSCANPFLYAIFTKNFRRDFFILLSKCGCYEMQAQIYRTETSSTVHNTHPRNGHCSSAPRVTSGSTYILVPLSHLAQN
# assay_notes: EC50 of cyclic AMP production in CHO FSHR cells + EC20 FSH (Assay A)
# Type: cell-based
# Description: EC50 of Cyclic AMP Production in CHO FSHR Cells+EC20 FSH (Assay A) 2500 Cho-FSHR-LUC-1-1-43 cells were plated per well in 5 μl of phenol red free DMEM/F12+1% FBS. Cells were plated in 384 well, solid white low volume plates (Greiner 784075) by Multidrop. […] The plates were read on Envision using the cAMP HTRF—low volume 384 well protocol. The readout was the calculated fluorescence ratio (665 nm/620 nm). […]
pEC50: −log10 of the molar value.
Readings of pEC50 for the listed compounds
measured_attribute: pEC50

| compound | measured_attribute | observed |
| --- | --- | --- |
| COc1ccc2c(c1)OCc1c(C(=O)N(C)C(C)(C)C)nn(-c3ccsc3)c1-2 | pEC50 | 5.30 to 6.00 |
| [2H]C([2H])([2H])OCC(C)(C)N(C(=O)c1nn(-c2ccsc2)c2c1COc1cc(OC)c(C=C(C)C)cc1-2)C([2H])([2H])[2H] | pEC50 | > 7.00 |
| COc1cc2c(cc1C1=NC([Si](C)(C)C)N=N1)-c1c(c(C(=O)N3CCOCC3(C)C)nn1-c1ccsc1)CO2 (stereo not shown) | pEC50 | > 7.00 |
| COCC(C)(C)N(C)C(=O)c1nn(-c2ccsc2)c2c1COc1cc(OC)c(C=C(C)C)cc1-2 | pEC50 | > 7.00 |

Hello, the source for this data is patent US11365199B2, in case you need it.
